All values here come from ChEMBL document CHEMBL1131384.

molecular target: 5-hydroxytryptamine receptor 4 (Rattus norvegicus) (UniProt Q62758); test: Antagonistic activity evaluated by ability to block serotonin induced relaxation via 5-hydroxytryptamine 4 receptor) in carbamylcholine (10e-6 M) contracted esophagus at a concentration of 0.1 mg/kg (p.o.); type: functional, organism-based; set-up: dose 0.1 mg/kg
Sequence (Q62758 whole entry): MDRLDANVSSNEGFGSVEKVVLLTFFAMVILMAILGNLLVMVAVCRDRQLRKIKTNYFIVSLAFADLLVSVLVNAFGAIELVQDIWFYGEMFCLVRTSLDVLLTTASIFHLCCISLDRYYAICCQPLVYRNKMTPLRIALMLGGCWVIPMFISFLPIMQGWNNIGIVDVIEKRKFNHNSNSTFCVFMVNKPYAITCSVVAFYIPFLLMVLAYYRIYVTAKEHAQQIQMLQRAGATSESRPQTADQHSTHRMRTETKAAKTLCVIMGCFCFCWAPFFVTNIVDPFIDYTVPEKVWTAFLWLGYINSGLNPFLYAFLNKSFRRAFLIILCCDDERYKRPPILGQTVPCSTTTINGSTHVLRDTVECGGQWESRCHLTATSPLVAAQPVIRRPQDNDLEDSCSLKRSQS
Assign Relaxation to each entry below.

(Q) # lookup: Relaxation of `CC(C)n1nc(C(=O)NCCN2CCC(NC(=O)Nc3ccc(F)cc3)CC2)c2ccccc21`
(A) 45.5%

(Q) # lookup: Relaxation of `CC(C)n1nc(C(=O)NCCN2CCCC2)c2ccccc21`
(A) 51%

(Q) # lookup: Relaxation of `CC(C)n1nc(C(=O)NCCN2CCC(N)CC2)c2ccccc21`
(A) 41%

(Q) # lookup: Relaxation of `CC(=O)NC1CCN(CCNC(=O)c2nn(C(C)C)c3ccccc23)CC1`
(A) 19.1%

(Q) # lookup: Relaxation of `CC(C)n1nc(C(=O)NCCN2CCC(NC(=O)OCc3ccccc3)CC2)c2ccccc21`
(A) 21%

(Q) # lookup: Relaxation of `CCCC(=O)NC1CCN(CCNC(=O)c2nn(C(C)C)c3ccccc23)CC1`
(A) 51%

(Q) # lookup: Relaxation of `CC(C)n1nc(C(=O)NCCN2CCC(NC(=O)Nc3ccccc3)CC2)c2ccccc21`
(A) 33.7%
